- Tested system: full length recombinant Pim-2 (Homo sapiens (Human), UniProt Q9P1W9)
- Sequence (Q9P1W9 whole entry): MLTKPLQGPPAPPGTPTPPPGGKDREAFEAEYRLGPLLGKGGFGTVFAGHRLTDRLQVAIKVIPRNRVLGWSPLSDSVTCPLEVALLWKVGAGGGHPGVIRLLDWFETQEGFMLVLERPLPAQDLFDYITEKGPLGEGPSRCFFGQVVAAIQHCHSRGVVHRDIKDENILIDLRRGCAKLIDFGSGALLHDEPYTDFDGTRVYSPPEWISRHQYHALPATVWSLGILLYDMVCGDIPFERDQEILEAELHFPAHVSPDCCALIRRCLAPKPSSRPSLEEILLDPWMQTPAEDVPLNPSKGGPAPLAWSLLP
- Test description: Pim enzyme assay (HTRF, phosphorylation of biotinylated-BAD (S112) peptide), Pim-2
- Assay type: biochemical
- Setup conditions: Pim-2 enzyme assay; read-out: Pim2_IC50
pIC50: −log10 of the molar value.
Measurement name: pIC50

Record request: pIC50 value, item CNc1nnc(-c2ccc3[nH]cc(-c4cccc(F)n4)c3c2)s1 [Example 239]
6.13

a. CC(C)Cc1nnc(-c2ccc3[nH]cc(-c4nccc(C5CC5)n4)c3c2)o1 [Example 51]
b. CNc1nnc(-c2ccc3[nH]cc(-c4cccc(N)c4)c3c2)s1 [Example 221]
Between a and b , which one has the lower reported pIC50 value? // caller expects the label of the chosen entry
b

P. CNc1nnc(-c2ccc3[nH]cc(-c4cccc(N5CCCC5=O)n4)c3c2)s1 [Example 229]
Q. CNc1nnc(-c2ccc3[nH]cc(-c4cccc(-n5ccccc5=O)n4)c3c2)s1 [Example 238]
Between P and Q , which one has the lower reported pIC50 value? // caller expects the label of the chosen entry
Q
(Q: 6.07, P: 7.09)

I. NC1CCN(c2nnc(-c3ccc4[nH]cc(-c5ccccc5F)c4c3)s2)CC1 [Example 144]
II. c1ccc(Nc2nnc(-c3ccc4[nH]cc(-c5cncc(C6CC6)n5)c4c3)o2)cc1 [Example 40]
Higher pIC50: I or II ? // caller expects the label of the chosen entry
II
(II: 6.67, I: 5.77)
